# Test system: pigweed
# ASSAY_SUMMARY: Test C pre-/postemergence herbicide test
# Format: in vivo, Amaranthus retroflexus
# SETUP_CONDITIONS: 125 g ai/ha; scale 0 (no effect) to 100 (complete control); visual, 12 to 14 days; preemergence
MEASURE: Plant response rating, Pigweed

compound=CCc1nn(C(C)(C)C)cc1C(=O)Nc1cc(C(=O)N(CC)CC)ccc1F target=pigweed assay_result=100
compound=CCn1nc(C(C)(C)C)cc1C(=S)Nc1cc(C(=S)N(C)C)ccc1F target=pigweed assay_result=100
compound=CC(=NO)c1cccc(NC(=O)c2sc(C(C)(C)C)nc2C)c1 target=pigweed assay_result=60
compound=CCNC(=O)c1cccc(NC(=O)c2sc(C(C)(C)C)nc2CC)n1 target=pigweed assay_result=100
compound="CCN(C)C(=O)c1ccc(F)c(NC(=O)C2CC(C(C)(C)C)=NN2CC)c1 (racemic)" target=pigweed assay_result=100
compound=CCc1nn(C(C)(C)C)cc1C(=O)Nc1cc(C(=O)N(C)C)ccn1 target=pigweed assay_result=85
compound=CCCN1CCc2c(NC(=O)c3cc(C(C)(C)C)nn3CC)cccc2C1=O target=pigweed assay_result=100

---

# Test system: johnsongrass
# ASSAY_SUMMARY: Test C pre-/postemergence herbicide test
# Type: in vivo, Sorghum halepense
# SETUP_CONDITIONS: 62 g ai/ha; preemergence; scale 0 to 100
MEASURE: Plant response rating, Johnsongrass

compound=CCNC(=O)c1cccc(NC(=O)c2sc(C(C)(C)C)nc2CC)n1 measure="Plant response rating, Johnsongrass" assay_result=0
compound=CCNC(=O)c1cccc(NC(=O)c2cc(C3(C)CC3)nn2CC)c1 measure="Plant response rating, Johnsongrass" assay_result=40
compound=CCn1nc(C(C)(C)C)cc1C(=O)Nc1cccc(OC(F)F)c1 measure="Plant response rating, Johnsongrass" assay_result=0
compound=CCn1nc(C(C)(C)C)cc1C(=O)Nc1cccc(C(N)=O)n1 measure="Plant response rating, Johnsongrass" assay_result=65
compound="CCN(C)C(=O)c1ccc(F)c(NC(=O)C2CC(C(C)(C)C)=NN2CC)c1 (racemic)" measure="Plant response rating, Johnsongrass" assay_result=60
compound=CCNC(=O)c1cccc(NC(=O)c2sc(C(C)(C)C)nc2CC)c1 measure="Plant response rating, Johnsongrass" assay_result=5
compound=CC(=NO)c1cccc(NC(=O)c2sc(C(C)(C)C)nc2C)c1 measure="Plant response rating, Johnsongrass" assay_result=0

---

# Tested on: pigweed
# ASSAY_SUMMARY: Test B pre-/postemergence herbicide test
# Type: in vivo, Amaranthus retroflexus
# SETUP_CONDITIONS: Postemergence, 500 g ai/ha; visual rating after 13 to 15 days, scale 0 (no effect) to 100 (complete control)
Short version: Plant response rating, Pigweed at least 70 is YES, less is NO.

smiles_string=CCCCn1nc(C(C)(C)C)cc1C(=O)Nc1cccc(C(C)=NO)c1 class_assignment=NO
smiles_string=CCNC(=O)c1cc(NC(=O)c2cc(C(C)(C)C)nn2CC)ccc1C class_assignment=NO
smiles_string=C=Cn1nc(C(C)(C)C)cc1C(=O)Nc1cccc(C(=O)NCC(F)(F)F)c1 class_assignment=YES
smiles_string=C#CCNC(=O)c1cccc(NC(=O)c2cc(C(C)(C)C)nn2CC)c1 class_assignment=YES
smiles_string=CCNC(=O)c1cc(NC(=O)c2cc(C(C)(C)C)nn2CC)ccc1F class_assignment=YES
smiles_string=CC(=NO)c1cccc(NC(=O)c2cc(C(C)(C)C)nn2C(C)C)c1 class_assignment=NO
smiles_string=CCn1nc(C(C)(C)C)cc1C(=O)Nc1cccc(C(=O)OC(C)(C)C)c1 class_assignment=NO
smiles_string=CC(=NO)c1cccc(NC(=O)c2cc(C(C)(C)C)nn2CCF)c1 class_assignment=YES
smiles_string=CCOC(=O)c1cccc(NC(=O)c2cc(C(C)(C)C)nn2CC)c1C class_assignment=NO
smiles_string=CCCOC(=O)c1cccc(NC(=O)c2cc(C(C)(C)C)nn2CC)c1C class_assignment=NO

---

# Test system: soybean
# ASSAY_SUMMARY: Test C pre-/postemergence herbicide test
# Type: in vivo, Glycine max
# SETUP_CONDITIONS: 250 g ai/ha; scale 0-100; preemergence
Known Plant response rating, Soybean of a selection of molecules
MEASURE: Plant response rating, Soybean

molecule="CCn1nc(C(C)(C)C)cc1C(=O)Nc1cc(C(=S)N(C)C)ccc1F [Compound 294]" assay_result=100
molecule="CCn1nc(C(C)(C)C)cc1C(=O)Nc1cc(C(=S)N(C)C)ccn1 [Compound 334]" assay_result=80
molecule="CCc1nn(C(C)(C)C)nc1C(=S)Nc1cccc(C(=S)N(C)C)c1 [Compound 396]" assay_result=100
molecule="CCn1nc(C(C)(C)C)cc1C(=O)Nc1cccc(OC(F)F)c1 [Compound 332]" assay_result=0
molecule="CCNC(=O)c1cccc(NC(=O)c2sc(C(C)(C)C)nc2CC)c1 [Compound 210]" assay_result=0
molecule="CCNC(=O)c1cccc(NC(=O)c2cc(C3(C)CC3)nn2CC)c1 [Compound 306]" assay_result=15
molecule="CC(=NO)c1cccc(NC(=O)c2sc(C(C)(C)C)nc2C)c1 [Compound 195]" assay_result=0
molecule="CCN(C)C(=O)c1ccc(F)c(NC(=O)C2CC(C(C)(C)C)=NN2CC)c1 (racemic) [Compound 307]" assay_result=80
molecule="CCC1=NN(C(C)(C)C)CC1C(=O)Nc1cc(C(=O)N(C)C)ccc1F (racemic) [Compound 343]" assay_result=100

---

# Tested on: kochia
# ASSAY_SUMMARY: Test C pre-/postemergence herbicide test
# Format: in vivo, Kochia scoparia
# SETUP_CONDITIONS: 62 g ai/ha; preemergence; scale 0 to 100
Examples of compounds with documented Plant response rating, Kochia follow.
MEASURE: Plant response rating, Kochia

compound="CCOC(=O)c1cccc(NC(=O)c2nn(C(C)(C)CC)nc2CC)c1 [Compound 375]" measure="Plant response rating, Kochia" assay_result=80
compound="CCNC(=O)c1cccc(NC(=O)c2sc(C(C)(C)C)nc2CC)c1 [Compound 210]" measure="Plant response rating, Kochia" assay_result=0
compound="C=CCNC(=O)c1cccc(NC(=O)c2sc(C(C)(C)C)nc2CC)c1 [Compound 207]" measure="Plant response rating, Kochia" assay_result=90
compound="CCNC(=O)c1cccc(NC(=O)c2cc(C3(C)CC3)nn2CC)c1 [Compound 306]" measure="Plant response rating, Kochia" assay_result=0
compound="Cc1nn(C(C)(C)C)nc1C(=O)Nc1cccc(C(=O)N2CC=CC2)c1 [Compound 393]" measure="Plant response rating, Kochia" assay_result=0

---

A collection of compounds and their measured Crabgrass, Large plant response rating
# System: large crabgrass
# ASSAY_SUMMARY: Test A pre-/postemergence herbicide test
# Format: in vivo, Digitaria sanguinalis
# SETUP_CONDITIONS: Preemergence, 2000 g ai/ha; 0 to 100 scale, 0 no effect, 100 complete control
MEASURE: Crabgrass, Large plant response rating

compound="CCN(CC)C(=O)c1cc(NC(=O)c2cc(C(C)(C)C)nn2CC)ccc1F [Compound 59]" target="large crabgrass" assay_result=45
compound="C=CCNC(=O)c1cccc(NC(=O)c2cc(C(C)(C)C)nn2CC)c1 [Compound 46]" target="large crabgrass" assay_result=90
compound="CCCOC(=O)c1cccc(NC(=O)c2cc(C(C)(C)C)nn2CC)c1C [Compound 90]" target="large crabgrass" assay_result=75
compound="C#CCNC(=O)c1cccc(NC(=O)c2cc(C(C)(C)C)nn2CC)c1 [Compound 47]" target="large crabgrass" assay_result=90
compound="CCNC(=O)c1cc(NC(=O)c2cc(C(C)(C)C)nn2CC)ccc1F [Compound 58]" target="large crabgrass" assay_result=95

---

# System: blackgrass
# ASSAY_SUMMARY: Test B postemergence herbicide test
# Type: in vivo, Alopecurus myosuroides
# SETUP_CONDITIONS: Postemergence, 500 g ai/ha; scale 0 (no effect) to 100 (complete control)
Quick list: Blackgrass plant response rating per entry.
MEASURE: Blackgrass plant response rating

smiles_string=C=CCNC(=O)c1ccc(F)c(N(C(C)=O)C(=O)c2cc(C(C)(C)C)nn2CC)c1 assay_result=40
smiles_string=CCN(C)C(=O)c1ccc(F)c(NC(=O)c2nn(C(C)C)nc2C)c1 assay_result=0
smiles_string=C=CCNC(=O)c1cccc(NC(=O)c2nn(C(C)(C)C)nc2CC)c1 assay_result=50
smiles_string=CC(C)(C)n1nc(Br)c(C(=O)Nc2cccc(C(=O)NC3CC3)c2)n1 assay_result=30
smiles_string=CCOC(=O)c1cccc(NC(=O)c2nn(C(C)(C)C)nc2Br)c1 assay_result=40
smiles_string=Cc1nn(C(C)C)nc1C(=O)Nc1cc(C(=O)N(C)C)ccc1F assay_result=0
smiles_string=CCOC(=O)c1cncc(NC(=O)c2nn(C(C)(C)C)nc2C)c1 assay_result=20
